Assay: physchem
Assay type: physicochemical
Settings: pH 3.9, aqueous buffer
Structures can show the parent of a compound that is named as a salt.
Property Measured: solubility (µg/mL)
# value in µg/mL; strip the unit string

Request: Fill blank: measured solubility of the molecule N[C@@H]1CC[C@@H](c2ccc(Cl)c(Cl)c2)c2ccccc21 [dasotraline HCl] is ____.
Result: 800

----------
Assay: physchem
Format: physicochemical
Conditions: pH 2.2, aqueous buffer
Text: To make a solution, one must attain sufficient solubility to achieve efficacious levels of an active pharmaceutical ingredient (API) while avoiding precipitation.
Where a name gives a salt, the structure may show the parent alone.
Property Measured: solubility (µg/mL)
# value in µg/mL; strip the unit string

Request: Fill blank: measured solubility of the molecule N[C@@H]1CC[C@@H](c2ccc(Cl)c(Cl)c2)c2ccccc21 [dasotraline HCl] is ____.
Result: 1900

----------
Assay: physchem
Assay type: physicochemical
Details: pH 3, aqueous buffer
Counter-ions that a name gives are not always drawn.
Property Measured: solubility (µg/mL)
# value in µg/mL; strip the unit string

Request: Fill blank: measured solubility of the compound N[C@@H]1CC[C@@H](c2ccc(Cl)c(Cl)c2)c2ccccc21 [dasotraline HCl] is ____.
Result: 2100

----------
Assay: physchem
Assay type: physicochemical
Conditions: pH 2.7, aqueous buffer
Structures can show the parent of a compound that is named as a salt.
Property Measured: solubility (µg/mL)
# value in µg/mL; strip the unit string

Request: Fill blank: measured solubility of the compound N[C@@H]1CC[C@@H](c2ccc(Cl)c(Cl)c2)c2ccccc21 [dasotraline HCl] is ____.
Result: 2200

Source listed as patent US20200405867A1.
